Biological target: Cyclooxygenase (Rattus norvegicus, UniProt P35355+Q63921)
Sequence (P35355 whole entry): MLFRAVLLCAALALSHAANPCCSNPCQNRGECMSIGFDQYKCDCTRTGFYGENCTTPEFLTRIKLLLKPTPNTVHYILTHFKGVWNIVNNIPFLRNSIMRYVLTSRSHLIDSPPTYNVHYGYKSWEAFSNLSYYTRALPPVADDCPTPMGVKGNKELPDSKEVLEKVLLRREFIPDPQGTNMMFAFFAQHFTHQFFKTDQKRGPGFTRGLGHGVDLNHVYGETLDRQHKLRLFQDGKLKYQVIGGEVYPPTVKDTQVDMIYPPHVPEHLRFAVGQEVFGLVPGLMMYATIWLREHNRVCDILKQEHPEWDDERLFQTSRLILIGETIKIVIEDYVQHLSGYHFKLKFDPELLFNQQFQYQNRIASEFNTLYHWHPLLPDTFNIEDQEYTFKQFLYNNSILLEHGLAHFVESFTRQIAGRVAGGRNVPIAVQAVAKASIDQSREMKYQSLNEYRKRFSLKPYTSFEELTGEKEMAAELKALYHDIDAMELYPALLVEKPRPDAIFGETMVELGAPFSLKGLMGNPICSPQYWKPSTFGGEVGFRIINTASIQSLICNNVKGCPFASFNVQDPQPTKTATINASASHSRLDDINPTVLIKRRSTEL
Sequence (Q63921 whole entry): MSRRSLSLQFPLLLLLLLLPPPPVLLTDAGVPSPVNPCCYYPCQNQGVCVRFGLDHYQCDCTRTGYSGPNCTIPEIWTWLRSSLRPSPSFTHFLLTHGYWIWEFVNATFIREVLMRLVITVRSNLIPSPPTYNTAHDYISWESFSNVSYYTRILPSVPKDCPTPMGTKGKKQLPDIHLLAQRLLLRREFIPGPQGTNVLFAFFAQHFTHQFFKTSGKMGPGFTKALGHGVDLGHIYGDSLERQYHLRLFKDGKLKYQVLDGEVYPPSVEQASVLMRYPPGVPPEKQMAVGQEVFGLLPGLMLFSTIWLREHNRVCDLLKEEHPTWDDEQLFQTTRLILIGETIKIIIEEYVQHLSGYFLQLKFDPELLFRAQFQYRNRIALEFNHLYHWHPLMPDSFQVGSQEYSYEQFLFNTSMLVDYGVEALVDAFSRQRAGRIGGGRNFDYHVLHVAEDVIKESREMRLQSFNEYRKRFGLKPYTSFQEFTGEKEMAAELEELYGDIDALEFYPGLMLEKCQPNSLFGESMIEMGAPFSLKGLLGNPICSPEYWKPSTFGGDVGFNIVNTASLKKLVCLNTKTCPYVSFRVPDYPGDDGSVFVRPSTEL
Measured IC50 values are reported for all entries that follow.
recorded-metric: IC50

In [3]: df
Out[3]:
                                   compound  observed_value
0     Nc1c(C(=O)CCC(=O)O)cccc1C(=O)c1ccccc1       > 1000 µM
1  Nc1c(C(=O)CCC(=O)O)cccc1C(=O)c1ccc(Cl)cc1       > 1000 µM
2  Nc1c(CC(=O)[O-])cccc1C(O)c1ccc(Cl)cc1.[Na+] (configuration not stated)       > 1000 µM
3         CCOC(=O)Cc1cccc(C(=O)c2ccccc2)c1N           50 µM
4  Nc1c(CCO)cccc1C(O)c1ccc(Cl)cc1 (configuration not stated)       > 1000 µM
5           O=C(O)Cc1cccc2c(-c3ccccc3)onc12       > 1000 µM
6  CCOC(=O)Cc1cccc(C(=O)c2ccc(Cl)cc2)c1NC(=O)C(F)(F)F       > 1000 µM
